Measured values drawn from patent US6709814B1 for this set.

pKd reference
# target: the molecule itself
# assay.comment: self-dimerization, electrospray mass spectrometry, relative dimer ion current against peptide concentration, pH 5.0
pKd: −log10 of the molar value. Ends that are not written are not given here.
quantity.name: pKd

EFLIAKS (Alanine scan analog of EFLIVKS (V5A)); 4.09
EALIVKS (Alanine scan analog of EFLIVKS (F2A)); 4.38
KFLIVKS (Analog of EFLIVKS with the N-terminal glu replaced by lys); 5.17
EFLIVKS-NH2 (also called EFLIVKS-amide; dimerizer); 5.11
EFAIVKS (Alanine scan analog of EFLIVKS (L3A)); 4.12
EFLAVKS (Alanine scan analog of EFLIVKS (I4A)); 4.38
EFLIVKA (Alanine scan analog of EFLIVKS (S7A)); 5.00
